Where do the numbers come from? From the supplement of paper PMC10065799.

Below is a list of entries, each paired with its recorded phosphorylation enrichment value.
# target_system: Hck (UniProt P08631)
# Sequence (P08631 whole entry, looked up): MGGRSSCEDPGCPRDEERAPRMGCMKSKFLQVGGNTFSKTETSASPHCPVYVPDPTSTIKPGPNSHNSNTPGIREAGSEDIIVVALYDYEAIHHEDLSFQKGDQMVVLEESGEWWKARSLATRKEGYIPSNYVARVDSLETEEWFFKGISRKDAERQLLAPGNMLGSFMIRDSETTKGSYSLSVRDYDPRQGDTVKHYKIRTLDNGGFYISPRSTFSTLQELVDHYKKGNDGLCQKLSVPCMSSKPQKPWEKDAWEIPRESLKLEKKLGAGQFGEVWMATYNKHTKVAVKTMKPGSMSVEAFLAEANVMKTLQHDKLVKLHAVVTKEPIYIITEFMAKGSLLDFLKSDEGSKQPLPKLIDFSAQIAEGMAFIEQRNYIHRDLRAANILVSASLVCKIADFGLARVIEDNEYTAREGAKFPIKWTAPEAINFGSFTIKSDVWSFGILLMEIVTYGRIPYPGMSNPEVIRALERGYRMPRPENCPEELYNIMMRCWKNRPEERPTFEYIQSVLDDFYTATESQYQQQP
# test_details: phosphorylation enrichment, bacterial display (enrichment ratio); higher = better substrate or ligand; peptides without Tyr show the background;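 note: 11-residue human phosphosite peptides and single-mutation variants displayed on the E. coli surface, counted by deep sequencing, each peptide's frequency after selection divided by its frequency in the unselected input library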;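 note: frequency after pTyr selection over input frequency; kinase dosed for 20-30% of maximal phosphorylation in three min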
value_kind: phosphorylation enrichment

- residue_string: "DSYWSYCNAVA [SLC20A2_Y436_S434W]"
  recorded_result: 3.31
- residue_string: "KGSEGYLAATY [NF1_Y2503]"
  recorded_result: 0.46
- residue_string: "LVTRSYLLGNS [LMNA_Y646]"
  recorded_result: 0.708
- residue_string: "IFRASYFRRGD [LTK_Y676_YF]"
  recorded_result: 0.613
- residue_string: "DTLMEYLENPK [CYCS_Y68]"
  recorded_result: 0.69
- residue_string: "IGEGTSGVVFK [CDK2_Y15_Y15S_YF]"
  recorded_result: 0.449
- residue_string: "QLYGPYLRIHA [BSCL2_Y213_A212P]"
  recorded_result: 2.83
- residue_string: "VGTKRYMAPKV [ACVRL1_Y375_E379K]"
  recorded_result: 0.327
- residue_string: "RSSNTYTLTDV [ALCAM_Y298]"
  recorded_result: 0.951
- residue_string: "KGEDFYSVTCH [FHL1_Y149_C150S]"
  recorded_result: 3.19
- residue_string: "LPIQTYSALNF [DES_Y423]"
  recorded_result: 18.9
- residue_string: "QPSALYEDRFL [ASS1_Y83_S79P_YF]"
  recorded_result: 6.97
- residue_string: "CEAMEYPESKQ [BTK_Y511_L512P]"
  recorded_result: 0.572
- residue_string: "YRVAGYETQGG [TIA1_Y383]"
  recorded_result: 0.37
